B1: EHEE_rd4_0726 (parent)
chain: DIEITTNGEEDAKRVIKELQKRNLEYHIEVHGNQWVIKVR

variants of: B1; assay: folding stability dG (cDNA display proteolysis); higher = more stable; settings: PBS, room temperature
Endpoint: folding stability dG (kcal/mol)

{"Variant Name": "G8F", "Assay Value": 1.97}
{"Variant Name": "K17G", "Assay Value": 1.97}
{"Variant Name": "I2R", "Assay Value": 1.97}
{"Variant Name": "I16M", "Assay Value": 2.04}
{"Variant Name": "E10I", "Assay Value": 2.01}
